Measured values drawn from patent US8507411B2 for this set.

Tested on: NmuMG
METHOD: cells
Format: cell-based, mouse
PROTOCOL CONDITIONS: NmuMG mouse mammary normal epithelial control line; read-out: IC50, NmuMG
MEASURED QUANTITY: IC50 (µM)
Just the number please, in µM, no unit attached.

CON([C@H]1CC[C@@]2(C)[C@H](CC[C@@H]3[C@@H]2CC[C@]2(C)[C@@H](C4=CC(=O)OC4)CC[C@]32O)C1)[C@@H]1OC[C@@H](O)[C@H](O)[C@H]1O [24β, D-xyloside] = 0.9

Now look at this entry.
Exercise: Can you look up the measured IC50 of CON([C@H]1CC[C@@]2(C)[C@H](CC[C@@H]3[C@@H]2CC[C@]2(C)[C@@H](C4=CC(=O)OC4)CC[C@]32O)C1)[C@H]1OC[C@H](O)[C@H](O)[C@H]1O [32β, L-arabinoside] for me?
Key: 0.4

###

Test system: MCF7
METHOD: High-throughput calcein AM cytotoxicity assay, MCF7
Type: cell-based, human
PROTOCOL CONDITIONS: MCF7 cells; read-out: IC50, MCF7
Description: Standard errors are depicted with error bars.
pIC50: −log10 of the molar value.
MEASURED QUANTITY: pIC50

CON(C1CCC2(C)C(CCC3C2CCC2(C)C(C4=CC(=O)OC4)CCC32O)C1)C1OC(CO)C(O)C(O)C1O [40β, D-taloside] = 5.85
CON(C1CCC2(C)C(CCC3C2CCC2(C)C(C4=CC(=O)OC4)CCC32O)C1)C1OC(CO)C(O)C(O)C1O [22α, D-galactoside] = < 4.60

In the following, a different compound is considered.
Exercise: Name the recorded pIC50 for CON(C1CCC2(C)C(CCC3C2CCC2(C)C(C4=CC(=O)OC4)CCC32O)C1)C1OC(CF)C(O)C(O)C1O [13α, 6-deoxy-6-fluoro-D-glucoside] .
Key: < 4.60

###

Test system: NCI/ADR-RES
METHOD: cells
Assay type: cell-based, human
PROTOCOL CONDITIONS: Homo sapiens, NCI/ADR-RES, read-out: IC50, NCI/ADR-RES, NCI/ADR-RES cells
MEASURED QUANTITY: IC50
Number first, unit second: that is the form wanted.

Exercise: Returns the measured IC50 for the input compound. Input: CON(C1CCC2(C)C(CCC3C2CCC2(C)C(C4=CC(=O)OC4)CCC32O)C1)C1OCC(O)C(O)C1O [15β, D-lyxoside]
Key: 75 nM

###

System: Hep3B
METHOD: High-throughput calcein AM cytotoxicity assay, Hep3B
Format: cell-based, human
PROTOCOL CONDITIONS: Hep3B, 72 h, calcein AM; read-out: IC50
MEASURED QUANTITY: IC50 (nM)
Give the quantity in nM, number only.

Exercise: For the record CON(C1CCC2(C)C(CCC3C2CCC2(C)C(C4=CC(=O)OC4)CCC32O)C1)C1OC(CO)C(O)C(O)C1O [40β, D-taloside] , what value of IC50 is listed for Hep3B?
Key: 180

###

Tested on: NmuMG
METHOD: cells
Type: cell-based, mouse
PROTOCOL CONDITIONS: NmuMG mouse mammary normal epithelial control line; read-out: IC50, NmuMG
MEASURED QUANTITY: IC50

Known IC50 results, listed for orientation:
CON(C1CCC2(C)C(CCC3C2CCC2(C)C(C4=CC(=O)OC4)CCC32O)C1)C1OC(CO)C(O)C(O)C1O [21α, L-galactoside] = > 25 µM
CON([C@H]1CC[C@@]2(C)[C@H](CC[C@@H]3[C@@H]2CC[C@]2(C)[C@@H](C4=CC(=O)OC4)CC[C@]32O)C1)[C@H]1O[C@@H](CO)[C@H](O)[C@H](O)[C@H]1O [19β, L-altroside] = 1 µM
CON(C1CCC2(C)C(CCC3C2CCC2(C)C(C4=CC(=O)OC4)CCC32O)C1)C1OC(CO)C(O)C(O)C1F [12α, 2-deoxy-2-fluoro-D-glucoside] = > 25 µM
CON([C@H]1CC[C@@]2(C)[C@H](CC[C@@H]3[C@@H]2CC[C@]2(C)[C@@H](C4=CC(=O)OC4)CC[C@]32O)C1)[C@@H]1O[C@H](CO)[C@@H](O)[C@@H](O)[C@H]1O [18β, D-alloside] = 3.1 µM
CON(C1CCC2(C)C(CCC3C2CCC2(C)C(C4=CC(=O)OC4)CCC32O)C1)C1OC(CO)C(O)C(O)C1O [20α, D-altroside] = > 25 µM

Exercise: Identify the measured IC50 of CON(C1CCC2(C)C(CCC3C2CCC2(C)C(C4=CC(=O)OC4)CCC32O)C1)C1OC(CO)C(O)C(O)C1O [18α, D-alloside] for NmuMG.
Key: > 25 µM

Exercise: Param readout = IC50; param system = NmuMG; param query = CON([C@H]1CC[C@@]2(C)[C@H](CC[C@@H]3[C@@H]2CC[C@]2(C)[C@@H](C4=CC(=O)OC4)CC[C@]32O)C1)[C@@H]1C[C@@](C)(O)[C@@H](O)[C@H](C)O1 [30β, L-mycaroside] ; response: value
Key: > 25 µM

Exercise: Hello, I am looking for reported IC50 with NmuMG for CON(C1CCC2(C)C(CCC3C2CCC2(C)C(C4=CC(=O)OC4)CCC32O)C1)C1OC(C)C(O)C(O)C1O [11β, 6-deoxy-D-glucoside] . Could you help?
Key: > 25 µM

Exercise: I'm curious: which IC50 was measured for CON(C1CCC2(C)C(CCC3C2CCC2(C)C(C4=CC(=O)OC4)CCC32O)C1)C1OC(CO)C(O)C(O)C1O [19α, L-altroside] tested on NmuMG?
Key: > 25 µM

Exercise: Given the entry CON(C1CCC2(C)C(CCC3C2CCC2(C)C(C4=CC(=O)OC4)CCC32O)C1)C1OCC(O)C(O)C1O [5α, L-riboside] , what IC50 was observed with NmuMG?
Key: > 25 µM

Exercise: Missing value: IC50, NmuMG, entry CON([C@H]1CC[C@@]2(C)[C@H](CC[C@@H]3[C@@H]2CC[C@]2(C)[C@@H](C4=CC(=O)OC4)CC[C@]32O)C1)[C@@H]1O[C@H](CO)[C@H](O)[C@@H](O)[C@@H]1O [29β, D-idoside] . Fill in?
Key: > 25 µM

Exercise: Which IC50 is reported with NmuMG for this entry: CON(C1CCC2(C)C(CCC3C2CCC2(C)C(C4=CC(=O)OC4)CCC32O)C1)C1OC(CO)C(O)C(O)C1O [42β, L-glucoside] ?
Key: 1.2 µM

###

Catalogue of IC50 values
System: NmuMG
METHOD: cells
Format: cell-based, mouse
PROTOCOL CONDITIONS: NmuMG mouse mammary normal epithelial control line; read-out: IC50, NmuMG
Protocol: In the assay, live cells were distinguished by the presence of a ubiquitous intracellular enzymatic activity which converts the non-fluorescent cell-permeable molecule calcein AM to the intensely fluorescent molecule calcein, which is retained within live cells. […] Determination of Cytotoxicity: Cells were incubated with the library members for 72 h before fluorescence reading. […] Plates were read for emission using a fluorescein filter (excitation 485 nm, emission 535 nm). […]

Use the examples below as a reference point.
CON(C1CCC2(C)C(CCC3C2CCC2(C)C(C4=CC(=O)OC4)CCC32O)C1)C1OC(COC2OC(CO)C(O)C(O)C2O)C(O)C(O)C1O (stereo not drawn) [35β, melibioside] = > 25000 nM
CON([C@H]1CC[C@@]2(C)[C@H](CC[C@@H]3[C@@H]2CC[C@]2(C)[C@@H](C4=CC(=O)OC4)CC[C@]32O)C1)[C@H]1O[C@@H](CO)[C@@H](O)[C@H](O)[C@H]1O [28β, L-idoside] = 1800 nM
CON(C1CCC2(C)C(CCC3C2CCC2(C)C(C4=CC(=O)OC4)CCC32O)C1)C1OC(CF)C(O)C(O)C1O [13α, 6-deoxy-6-fluoro-D-glucoside] = > 25000 nM
CON(C1CCC2(C)C(CCC3C2CCC2(C)C(C4=CC(=O)OC4)CCC32O)C1)C1OCC(O)C(O)C1O [14α, L-lyxoside] = > 25000 nM

Exercise: Can you look up IC50 on NmuMG for CON([C@H]1CC[C@@]2(C)[C@H](CC[C@@H]3[C@@H]2CC[C@]2(C)[C@@H](C4=CC(=O)OC4)CC[C@]32O)C1)[C@@H]1O[C@H](CO)[C@H](O)[C@@H](O)[C@H]1O [25β, D-guloside] ?
Key: 1800 nM

###

Test system: HCT-116
METHOD: High-throughput calcein AM cytotoxicity assay, HCT-116
Type: cell-based, human
PROTOCOL CONDITIONS: HCT-116 cells; read-out: IC50, HCT-116
Known IC50 of a selection of molecules
Report the figure in µM without appending any unit label.

Solved cases below.
CON(C1CCC2(C)C(CCC3C2CCC2(C)C(C4=CC(=O)OC4)CCC32O)C1)C1OC(CO)C(O)C(O)C1O [40β, D-taloside] = 1.9
CON([C@H]1CC[C@@]2(C)[C@H](CC[C@@H]3[C@@H]2CC[C@]2(C)[C@@H](C4=CC(=O)OC4)CC[C@]32O)C1)[C@@H]1O[C@H](CF)[C@@H](O)[C@H](O)[C@H]1O [13β, 6-deoxy-6-fluoro-D-glucoside] = 4.8
CON([C@H]1CC[C@@]2(C)[C@H](CC[C@@H]3[C@@H]2CC[C@]2(C)[C@@H](C4=CC(=O)OC4)CC[C@]32O)C1)[C@H]1O[C@@H](CO)[C@@H](O)[C@@H](O)[C@@H]1O [21β, L-galactoside] = 2.1
CON([C@H]1CC[C@@]2(C)[C@H](CC[C@@H]3[C@@H]2CC[C@]2(C)[C@@H](C4=CC(=O)OC4)CC[C@]32O)C1)[C@@H]1O[C@H](CO)[C@H](O)[C@@H](O)[C@H]1O [25β, D-guloside] = 2.1
CON([C@H]1CC[C@@]2(C)[C@H](CC[C@@H]3[C@@H]2CC[C@]2(C)[C@@H](C4=CC(=O)OC4)CC[C@]32O)C1)[C@H]1OC[C@H](O)[C@H](O)[C@@H]1O [5β, L-riboside] = 0.018

Would you kindly look at the next entry?
Exercise: Any idea what IC50 was measured for CONC1CC[C@]2(C)C3CC[C@]4(C)[C@@H](C5=CC(=O)OC5)CC[C@]4(O)C3CC[C@@H]2C1 (stereo partly drawn) [3α, S—C(3) aglycon] ?
Key: 9
